Test description: Solubility in HEPES buffer by the fluorescence method
Type: physicochemical
Setup conditions: aqueous buffer, HEPES buffer ([HEPES]=20 mM, pH 7.0)
Observation type: solubility

> print(dat)
                                   molecule  observation.type  measured
1  CCSCCSCCN(CCSCCSCC)c1ccc(NC(=O)CN(C)c2ccc3cc(C(C)=O)ccc3c2)cc1 [Chemical Formula 2]        solubility      4 µM

----------
Test description: One-photon and two-photon fluorescence titration with free copper(I) ions
Assay type: binding
Setup conditions: HEPES 20 mM, thiourea 100 μM, pH 7.0; 1:1 binding model; read-out: Dissociation constant (Kd) for the copper(I) ion, one-photon process
Observation type: Kd (pM)

> print(dat)
                               given.smiles  observation.type  measured
1  CCSCCSCCN(CCSCCSCC)c1ccc(NC(=O)CN(C)c2ccc3cc(C(C)=O)ccc3c2)cc1                Kd        16
